Could you please report measured AC26 for the items listed next?
# Tested on: D54 ERlucT glycosylation luciferase reporter, luminescence, 24 h
# Protocol summary: N-linked glycosylation inhibitors, luciferase reporter, dose response, D54 ERlucT cells, luminescence, cherry-picks (AID 624491);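 also: signal gain reflects blocked N-linked glycosylation of a luciferase reporter; actives raise luciferase signal so AC26 marks activators of the reporter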

Use the examples below as a reference point.
{"columns": ["Molecule", "Result"],
 "data": [
  ["CCN(CC)S(=O)(=O)c1ccc(-c2nnc(SCC(=O)N3CCc4ccccc43)o2)cc1", "1460 nM"],
  ["COc1cc(/C=N/Nc2nc3c(c(=O)n(C)c(=O)n3C)n2Cc2ccccc2)ccc1OC(=O)c1ccco1", "10500 nM"],
  ["Cc1ccc(C)c(OCC(O)CN2CCN(CCN3C(=O)c4cccc5cccc(c45)C3=O)CC2)c1 (stereo not given)", "755 nM"],
  ["COC(=O)c1cn(C(=O)c2cccc3ccccc23)c2ccccc12", "928 nM"],
  ["Cc1ccc(C(c2cc(Cl)c3cccnc3c2O)N2CCN(C)CC2)cc1 (stereo not given)", "1280 nM"]
]}

Below is a list of molecules. For each, state its recorded AC26.
1. COc1ccccc1-c1nnc2sc(-c3cc4ccccc4o3)nn12
2. CC(C)c1ccc(/C=N/NC(=O)c2ccccc2Cl)cc1
3. CN(C)/N=C/C=C1\CCC/C(=C\c2ccc(F)c(F)c2)C1=O
4. COc1ccc(NC(=O)C2(C)Cc3c(-c4cccc(C(N)=O)c4)ccnc3O2)cn1 (stereo not given)
5. Cc1ccc2c(C)c3ccc4ccccc4c3c[n+]2c1

## Output
1. 63.7 nM
2. 1910 nM
3. 966 nM
4. 10700 nM
5. 667 nM
